Sourced from the supplement of paper PMC10567573

Below is a list of entries, each paired with its recorded protein stability index value.
B1: FAM46D (parent)
chain: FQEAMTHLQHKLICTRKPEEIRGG

Variants of: B1
Assay: protein stability index of a GFP-peptide fusion (GPS, HEK-293T) (PSI 1-6); higher = more stable;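 further: lentivirally expressed fusions sorted by FACS into six bins by GFP to DsRed ratio, PSI derived from sequencing read proportions per bin multiplied by bin number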
Settings: c terminus: a fixed tail appended
Lab note: jot the number down without any unit.

Known protein stability index results, listed for orientation:
MUTATION STRING: I21K
protein stability index: 3.72
--
MUTATION STRING: E3V
protein stability index: 2.08
--
MUTATION STRING: E3F
protein stability index: 1.48
--
MUTATION STRING: I21R
protein stability index: 3.93

For the variant G23K , what protein stability index is on record?
3.19

What protein stability index value was documented for this variant, L8W ?
1.89

Quick one: protein stability index of E20M ?
2.03
